Assay: Stability of cannabinoid entourage and Vitamin E components of the powder concentrate by LCMSMS
Format: physicochemical
Conditions: powder stored at 21-25° C.; 10 days
Description: At each time period, 0.05 g of powder was dissolved in 10 ml-15 of ethanol, diluted to fall within the analytical range, and injected into the LCMSMS for analysis.
Property: Stability of Plant-Derived Cannabinoid Compounds in Powder Concentrate; scope: individual compounds
measured-endpoint: Stability of Plant-Derived Cannabinoid Compounds in Powder Concentrate

> print(dat)
                                   compound  reported.measurement
1  CCCCCc1cc(O)c2c(c1)OC(C)(CCC=C(C)C)C=C2 (stereo not drawn)     0.071 mg/g powder
2  C=C(C)[C@@H]1CCC(C)=C[C@H]1c1c(O)cc(CCCCC)c(C(=O)O)c1O     0.418 mg/g powder
3  CCCCCc1cc(O)c2c(c1)OC(C)(C)[C@@H]1CCC(C)=C[C@@H]21 [D9 THC, delta-9-tetrahydrocannabinol, reference compound]      2.60 mg/g powder

* * *

Property: Stability of Plant-Derived Cannabinoid Compounds in AB White, 21-25° C.; scope: individual molecules
experiment: Stability of cannabinoid compounds and Vitamin E components in Beverage 1 (AB White) by LCMSMS; type: physicochemical; conditions: AB White stored at 21-25° C.; 150 days
measured-endpoint: Stability of Plant-Derived Cannabinoid Compounds in AB White, 21-25° C.

> print(dat)
                                   molecule  reported.measurement
1  CCCCCc1cc2c(c(O)c1C(=O)O)[C@@H]1C=C(C)CC[C@H]1C(C)(C)O2 [D9 THCA, delta-9-tetrahydrocannabinolic acid]           0.934 µg/mL
2  CCCCCc1cc(O)c2c(c1)OC(C)(C)c1ccc(C)cc1-2 [CBN, cannabinol]            2.77 µg/mL
3  CCCCCc1cc(O)c2c(c1)OC(C)(C)[C@@H]1CCC(C)=C[C@@H]21 [D9 THC, delta-9-tetrahydrocannabinol, reference compound]            11.7 µg/mL

* * *

Property: Stability of Plant-Derived Cannabinoid Compounds in Powder Concentrate; scope: individual compounds
assay: Stability of cannabinoid entourage and Vitamin E components of the powder concentrate by LCMSMS; format: physicochemical; settings: powder stored at 21-25° C.; 390 days
measured-endpoint: Stability of Plant-Derived Cannabinoid Compounds in Powder Concentrate (mg/g powder)

> print(dat)
                                   compound  reported.measurement
1  C=C(C)[C@@H]1CCC(C)=C[C@H]1c1c(O)cc(CCCCC)cc1O [CBD, cannabidiol, reference compound]                  5.93
2  C=C(C)[C@@H]1CCC(C)=C[C@H]1c1c(O)cc(CCCCC)c(C(=O)O)c1O                 0.407
3  CCCc1cc(O)c2c(c1)OC(C)(C)[C@@H]1CCC(C)=C[C@@H]21 [THCV, delta-9-tetrahydrocannabivarin]                 0.680
4  CCCCCc1cc(O)c2c(c1)OC1(C)CCC3C1C2C3(C)C (centres unmarked)                 0.052
5  CCCCCc1cc(O)c2c(c1)OC(C)(C)[C@@H]1CCC(C)=C[C@@H]21 [D9 THC, delta-9-tetrahydrocannabinol, reference compound]                  2.48

* * *

Property: Stability of Plant-Derived Cannabinoid Compounds in AB Red; scope: individual compounds
experiment: Stability of cannabinoid compounds and Vitamin E components in Beverage 2 (AB Red) by LCMSMS; format: physicochemical; conditions: stored at 8° C., 0 days
measured-endpoint: Stability of Plant-Derived Cannabinoid Compounds in AB Red (µg/mL)

> print(dat)
                                   compound  reported.measurement
1  CCCCCc1cc(O)c2c(c1)OC(C)(CCC=C(C)C)C=C2 (stereo not shown) [CBC, cannabichromene]                 0.290
2  C=C(C)[C@@H]1CCC(C)=C[C@H]1c1c(O)cc(CCCCC)c(C(=O)O)c1O [CBDA, cannabidiolic acid]                  1.68
3  CCCCCc1cc(O)c2c(c1)OC1(C)CCC3C1C2C3(C)C (stereo not shown) [CBL, cannabicyclol]                 0.510
4  C=C(C)[C@@H]1CCC(C)=C[C@H]1c1c(O)cc(CCC)cc1O [CBDV, cannabidivarin]                 0.200

* * *

Property: Stability of Plant-Derived Cannabinoid Compounds in Powder Concentrate; scope: individual molecules
assay: Stability of cannabinoid entourage and Vitamin E components of the powder concentrate by LCMSMS; type: physicochemical; settings: powder stored at 21-25° C.; 90 days
measured-endpoint: Stability of Plant-Derived Cannabinoid Compounds in Powder Concentrate (mg/g powder)

> print(dat)
                                   molecule  units.label  reported.measurement
1  CCCCCc1cc(O)c2c(c1)OC(C)(C)c1ccc(C)cc1-2  mg/g powder                 0.483
2  C=C(C)[C@@H]1CCC(C)=C[C@H]1c1c(O)cc(CCCCC)cc1O [CBD, cannabidiol, reference compound]  mg/g powder                  6.00
3   CCCCCc1cc(O)c(C/C=C(\C)CCC=C(C)C)c(O)c1  mg/g powder                  1.13
4  CCCCCc1cc2c(c(O)c1C(=O)O)[C@@H]1C=C(C)CC[C@H]1C(C)(C)O2 [D9 THCA, delta-9-tetrahydrocannabinolic acid]  mg/g powder                 0.147
5  CCCc1cc(O)c2c(c1)OC(C)(C)[C@@H]1CCC(C)=C[C@@H]21 [THCV, delta-9-tetrahydrocannabivarin]  mg/g powder                 0.707

* * *

Property: Stability of Plant-Derived Cannabinoid Compounds in AB White, 8° C.; scope: individual compounds
test: Stability of cannabinoid compounds and Vitamin E components in Beverage 1 (AB White) by LCMSMS; type: physicochemical; conditions: AB White stored at 8° C.; 300 days
measured-endpoint: Stability of Plant-Derived Cannabinoid Compounds in AB White, 8° C.

> print(dat)
                                   compound  reported.measurement
1  CCCCCc1cc(O)c2c(c1)OC(C)(CCC=C(C)C)C=C2 (stereo not drawn) [CBC, cannabichromene]           0.313 µg/mL
2  CCCCCc1cc2c(c(O)c1C(=O)O)[C@@H]1C=C(C)CC[C@H]1C(C)(C)O2 [D9 THCA, delta-9-tetrahydrocannabinolic acid]           0.939 µg/mL
3  CCCCCc1cc(O)c2c(c1)OC(C)(C)[C@@H]1CCC(C)=C[C@@H]21 [D9 THC, delta-9-tetrahydrocannabinol, reference compound]           11.70 µg/mL

* * *

Property: Stability of Plant-Derived Cannabinoid Compounds in AB White, 8° C.; scope: individual molecules
assay: Stability of cannabinoid compounds and Vitamin E components in Beverage 1 (AB White) by LCMSMS; format: physicochemical; details: AB White stored at 8° C.; 24 days
measured-endpoint: Stability of Plant-Derived Cannabinoid Compounds in AB White, 8° C. (µg/mL)

> print(dat)
                                   molecule  units.label  reported.measurement
1  CCCCCc1cc(O)c2c(c1)OC(C)(CCC=C(C)C)C=C2 (stereo not shown)        µg/mL                 0.316
2  CCCCCc1cc(O)c2c(c1)OC(C)(C)c1ccc(C)cc1-2        µg/mL                  2.75
3  CCCCCc1cc(O)c2c(c1)OC1(C)CCC3C1C2C3(C)C (stereo not shown)        µg/mL                 0.548
4  C=C(C)[C@@H]1CCC(C)=C[C@H]1c1c(O)cc(CCCCC)cc1O [CBD, cannabidiol, reference compound]        µg/mL                 28.44
5  CCCCCc1cc2c(c(O)c1C(=O)O)[C@@H]1C=C(C)CC[C@H]1C(C)(C)O2 [D9 THCA, delta-9-tetrahydrocannabinolic acid]        µg/mL                 0.926
6   CCCCCc1cc(O)c(C/C=C(\C)CCC=C(C)C)c(O)c1        µg/mL                  4.83
7  C=C(C)[C@@H]1CCC(C)=C[C@H]1c1c(O)cc(CCC)cc1O        µg/mL                 0.147

* * *

Property: Stability of Plant-Derived Cannabinoid Compounds in AB White, 21-25° C.; scope: individual compounds
experiment: Stability of cannabinoid compounds and Vitamin E components in Beverage 1 (AB White) by LCMSMS; assay type: physicochemical; conditions: AB White stored at 21-25° C.; 16 days
measured-endpoint: Stability of Plant-Derived Cannabinoid Compounds in AB White, 21-25° C. (µg/mL)

> print(dat)
                                   compound  units.label  reported.measurement
1  CCCCCc1cc(O)c(C/C=C(\C)CCC=C(C)C)c(O)c1 [CBG, cannabigerol]        µg/mL                  4.80
2  CCCCCc1cc(O)c2c(c1)OC(C)(C)[C@@H]1CCC(C)=C[C@@H]21 [D9 THC, delta-9-tetrahydrocannabinol, reference compound]        µg/mL                  12.1
3  CCCCCc1cc(O)c2c(c1)OC(C)(C)c1ccc(C)cc1-2 [CBN, cannabinol]        µg/mL                  2.75
4  CCCCCc1cc(O)c2c(c1)OC1(C)CCC3C1C2C3(C)C (stereo not shown) [CBL, cannabicyclol]        µg/mL                 0.537

All values here come from patent US20260130395A1.
